# credit: patent US20050148656A1

test target: human PPARα (Homo sapiens)
Sequence (Q07869 whole entry): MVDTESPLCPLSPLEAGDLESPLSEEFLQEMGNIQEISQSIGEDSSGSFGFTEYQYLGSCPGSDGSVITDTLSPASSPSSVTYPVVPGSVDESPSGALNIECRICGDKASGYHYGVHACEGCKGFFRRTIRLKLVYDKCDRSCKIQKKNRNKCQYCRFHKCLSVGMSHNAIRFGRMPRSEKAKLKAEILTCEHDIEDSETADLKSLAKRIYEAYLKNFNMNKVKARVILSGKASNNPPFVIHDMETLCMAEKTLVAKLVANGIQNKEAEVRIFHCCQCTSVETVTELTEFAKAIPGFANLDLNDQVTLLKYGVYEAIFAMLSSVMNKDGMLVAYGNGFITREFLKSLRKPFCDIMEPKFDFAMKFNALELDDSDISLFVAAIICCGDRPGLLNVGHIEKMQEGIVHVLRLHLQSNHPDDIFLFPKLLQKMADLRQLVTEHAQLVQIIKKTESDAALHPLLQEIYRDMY
experiment: Luciferase reporter assay in transiently transfected cells, PPARα activation
protocol conditions: 50% of maximal activation obtained by reference compound (ETYA); about 24 hours exposure
endpoint label: pEC50
Scale: negative log10 of molar concentration, which is what pEC50 denotes.

Example results:
[[record]]
smiles_repr = "CCO[C@@H](Cc1ccc(OCC(=O)N(Cc2ccc(C(F)(F)F)cc2)Cc2ccc(C(F)(F)F)cc2)cc1)C(=O)O"
endpoint_label = "pEC50"
recorded_measurement = 8.52

[[record]]
smiles_repr = "CCO[C@@H](Cc1ccc(OCC(=O)N(Cc2ccc(Cl)cc2)Cc2ccc(C(C)(C)C)cc2)cc1)C(=O)O"
endpoint_label = "pEC50"
recorded_measurement = 8.10


Now examine the next entry.
Any idea what pEC50 came out for CCO[C@@H](Cc1ccc(OCC(=O)N(Cc2ccc(Cl)cc2)Cc2ccc(Cl)cc2)cc1)C(=O)O on human PPARα (Homo sapiens)?
8.52
